Reported IC50 values for a set of compounds
biological target: topo IV from E. coli (Escherichia coli); construct: purchased Inspiralis; test: relaxation HTS plate assay; assay type: biochemical; conditions: IC50 [nM] E. coli TopoIV
Sequence (P0AFI2 whole entry): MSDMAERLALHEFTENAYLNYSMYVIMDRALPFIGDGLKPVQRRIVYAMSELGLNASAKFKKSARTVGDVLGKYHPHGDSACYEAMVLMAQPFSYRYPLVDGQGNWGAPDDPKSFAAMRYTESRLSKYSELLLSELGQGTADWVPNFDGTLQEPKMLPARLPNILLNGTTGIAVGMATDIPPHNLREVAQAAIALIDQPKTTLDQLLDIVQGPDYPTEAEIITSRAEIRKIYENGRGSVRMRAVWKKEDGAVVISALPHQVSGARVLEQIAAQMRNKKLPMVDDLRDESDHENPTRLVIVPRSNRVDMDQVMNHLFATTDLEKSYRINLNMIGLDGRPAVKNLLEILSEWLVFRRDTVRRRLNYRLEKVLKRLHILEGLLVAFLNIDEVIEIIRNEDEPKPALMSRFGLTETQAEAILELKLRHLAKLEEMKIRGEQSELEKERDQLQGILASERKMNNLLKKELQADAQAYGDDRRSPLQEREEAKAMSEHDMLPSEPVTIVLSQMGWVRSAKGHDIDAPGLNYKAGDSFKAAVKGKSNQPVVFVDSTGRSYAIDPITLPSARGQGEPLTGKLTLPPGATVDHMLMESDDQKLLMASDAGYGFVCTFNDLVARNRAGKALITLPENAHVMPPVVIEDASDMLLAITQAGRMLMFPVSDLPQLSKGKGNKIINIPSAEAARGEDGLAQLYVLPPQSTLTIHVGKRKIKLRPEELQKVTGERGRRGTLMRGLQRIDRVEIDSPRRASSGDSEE
Sequence (P20083 whole entry): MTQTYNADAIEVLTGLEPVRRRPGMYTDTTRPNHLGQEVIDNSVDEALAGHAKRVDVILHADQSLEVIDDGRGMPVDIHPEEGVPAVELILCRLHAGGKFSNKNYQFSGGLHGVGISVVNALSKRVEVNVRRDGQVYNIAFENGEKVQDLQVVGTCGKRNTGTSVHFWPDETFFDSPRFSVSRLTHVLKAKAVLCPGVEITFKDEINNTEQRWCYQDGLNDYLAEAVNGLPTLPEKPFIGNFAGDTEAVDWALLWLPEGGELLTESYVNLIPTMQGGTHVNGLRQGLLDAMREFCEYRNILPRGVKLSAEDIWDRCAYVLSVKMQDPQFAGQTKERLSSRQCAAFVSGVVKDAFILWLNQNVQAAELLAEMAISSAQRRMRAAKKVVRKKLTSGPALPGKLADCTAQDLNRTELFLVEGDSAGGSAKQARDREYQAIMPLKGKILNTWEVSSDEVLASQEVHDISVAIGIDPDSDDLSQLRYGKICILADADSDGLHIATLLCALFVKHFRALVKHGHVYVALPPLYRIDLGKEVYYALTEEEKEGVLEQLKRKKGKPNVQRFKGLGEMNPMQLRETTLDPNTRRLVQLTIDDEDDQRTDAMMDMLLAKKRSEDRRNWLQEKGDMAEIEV
Record the value in nM, omitting the unit from your answer.

>  <compound>
Cc1[nH]c(C(=O)Nc2nc3c(N4CCNCC4)cc(C(=O)O)cc3s2)c(Cl)c1Cl.Cl [8b]

>  <observationType>
IC50

>  <reading>
120

$$$$
>  <compound>
Cc1[nH]c(C(=O)Nc2nc3c(N4CC[S+]([O-])CC4)cc(C(=O)O)cc3s2)c(Cl)c1Cl [7s]

>  <observationType>
IC50

>  <reading>
72

$$$$
>  <compound>
Cc1[nH]c(C(=O)Nc2nc3c(N4CC[C@H](N)C4)cc(C(=O)O)cc3s2)c(Cl)c1Cl.Cl [8a]

>  <observationType>
IC50

>  <reading>
38

$$$$
>  <compound>
Cc1[nH]c(C(=O)Nc2nc3c(CN4CCOCC4)cc(C(=O)O)cc3s2)c(Cl)c1Cl.Cl [compound 14]

>  <observationType>
IC50

>  <reading>
460

$$$$

// IC50 lookup, compound = Cc1[nH]c(C(=O)Nc2nc3c(N4CC[C@H](N(C)C)C4)cc(C(=O)O)cc3s2)c(Cl)c1Cl.Cl.N [7l] , result: 210

* * *

Reported MIC50 values for a set of compounds
test system: 100 A. baumannii strains (50 MDR, 50 non-MDR); test: MIC broth microdilution at IHMA Europe, panel of 100 strains; format: cell-based; conditions: Acinetobacter baumannii, MDR n = 50; read-out: MIC 50

>  <compound>
O=C(O)c1cn(C2CC2)c2cc(N3CCNCC3)c(F)cc2c1=O

>  <targetOrTestSystem>
100 A. baumannii strains (50 MDR, 50 non-MDR)

>  <reading>
> 16 µg/mL

$$$$
>  <compound>
Cc1[nH]c(C(=O)Nc2nc3c(N4[C@@H]5CC[C@H]4COC5)cc(C(=O)O)cc3s2)c(Cl)c1Cl

>  <targetOrTestSystem>
100 A. baumannii strains (50 MDR, 50 non-MDR)

>  <reading>
2 µg/mL

$$$$

Tested system 100 A. baumannii strains (50 MDR, 50 non-MDR); MIC50 recorded for CO/N=C(\C(=O)N[C@@H]1C(=O)N2C(C(=O)[O-])=C(C[N+]3(C)CCCC3)CS[C@H]12)c1csc(N)n1 [Cefepime, cefepime] was > 32 µg/mL

Tested system 100 A. baumannii strains (50 MDR, 50 non-MDR); MIC50 recorded for C[C@@H](O)[C@H]1C(=O)N2C(C(=O)O)=C(SCCNC=N)C[C@H]12 was > 16 µg/mL

Tested system 100 A. baumannii strains (50 MDR, 50 non-MDR); MIC50 recorded for CN(C)c1cc(NC(=O)CNC(C)(C)C)c(O)c2c1C[C@H]1C[C@H]3[C@H](N(C)C)C(O)=C(C(N)=O)C(=O)[C@@]3(O)C(O)=C1C2=O was 2 µg/mL

Tested system 100 A. baumannii strains (50 MDR, 50 non-MDR); MIC50 recorded for C[C@@H](O)[C@H]1C(=O)N2C(C(=O)O)=C(S[C@@H]3CN[C@H](C(=O)N(C)C)C3)[C@H](C)[C@H]12 was > 16 µg/mL

* * *

test system: 100 A. baumannii strains (50 MDR, 50 non-MDR); assay: MIC broth microdilution at IHMA Europe, panel of 100 strains; format: cell-based; details: Acinetobacter baumannii, A. baumannii IHMA 1795669, Tunisia 2018, Non-MDR; read-out: MIC
Reported MIC values for a set of molecules
Record the value in µg/mL, omitting the unit from your answer.

// MIC lookup, molecule = Cc1[nH]c(C(=O)Nc2nc3c(N4[C@@H]5CC[C@H]4COC5)cc(C(=O)O)cc3s2)c(Cl)c1Cl , result: 1

// MIC lookup, molecule = C[C@@H](O)[C@H]1C(=O)N2C(C(=O)O)=C(SCCNC=N)C[C@H]12 , result: 0.5

// MIC lookup, molecule = C[C@@H](O)[C@H]1C(=O)N2C(C(=O)O)=C(S[C@@H]3CN[C@H](C(=O)N(C)C)C3)[C@H](C)[C@H]12 , result: 0.25
